test system: SARS-CoV-2 (BetaCov/Belgium/GHB-03021/2020) in VeroE6-EGFP cells; assay: microbe, parasite or virus in culture; type: cell-based; conditions: Severe acute respiratory syndrome coronavirus 2
Endpoint Name: pIC50
pIC50 (log units): -log10 of the concentration in mol/L.

INPUT: Form field: pIC50 recorded for Cc1cc(O)c2c(=O)c3c(O)cc(O)c4c5c(O)cc(O)c6c(=O)c7c(O)cc(C)c8c1c2c(c34)c(c78)c65 with SARS-CoV-2 (BetaCov/Belgium/GHB-03021/2020) in VeroE6-EGFP cells (enter value)
OUTPUT: 6.60

---

pIC50 values by entry
tested on: SARS-CoV-2 (BetaCov/Belgium/GHB-03021/2020) in VeroE6-EGFP cells; experiment: microbe, parasite or virus in culture; type: cell-based; conditions: Severe acute respiratory syndrome coronavirus 2; read-out: IC50
Where a name gives a salt, the structure may show the parent alone.
Reminder that pIC50 is minus the log10 of a molar concentration.

Completed entries (count: 2):
• c1ccc2c(c1)Sc1ccccc1N2C[C@H]1CN2CCC1CC2 (stereo in doubt) [Mequitazine] = 5.22
• CC(C)c1ccc2c(c1)C(N1CCN(CCO)CC1)Cc1ccc(F)cc1S2 (stereo not drawn) [Isofloxythepin] = 3.97

In the following, a different compound is considered.
INPUT: What value of pIC50 on SARS-CoV-2 (BetaCov/Belgium/GHB-03021/2020) in VeroE6-EGFP cells does O=C(c1ccc(OCCN2CCCCC2)cc1)c1c(-c2ccc(O)cc2)sc2cc(O)ccc12 [Raloxifen hydrochloride] have?
OUTPUT: 5.01

---

tested on: SARS-CoV-2 (BetaCov/Belgium/GHB-03021/2020) in VeroE6-EGFP cells; experiment: microbe, parasite or virus in culture; format: cell-based
Structures can show the parent of a compound that is named as a salt.
# note: exactly 60% is not below, so it is NOT MET; use MET for % Confluence strictly under it

Worked set:
• CC(C)c1ccc2c(c1)C(N1CCN(CCO)CC1)Cc1ccc(F)cc1S2 (stereo not shown) [Isofloxythepin] = NOT MET
• Cc1cc(O)c2c(=O)c3c(O)cc(O)c4c5c(O)cc(O)c6c(=O)c7c(O)cc(C)c8c1c2c(c34)c(c78)c65 [Hypericin] = MET
• Nc1ccc2cc3ccc(N)cc3nc2c1 [Proflavine, 3,6-diaminoacridine] = MET
• O=C(c1ccc(OCCN2CCCCC2)cc1)c1c(-c2ccc(O)cc2)sc2cc(O)ccc12 [Raloxifen hydrochloride] = MET
• CC(C)(C)NCc1ccc(Nc2ccnc3cc(Cl)ccc23)cc1O [N-tert-Butylisoquine] = NOT MET

INPUT: Strictly below 60% in % Confluence? CC(C)(Sc1cc(C(C)(C)C)c(O)c(C(C)(C)C)c1)Sc1cc(C(C)(C)C)c(OC(=O)CCC(=O)O)c(C(C)(C)C)c1 [Succinobucol]
OUTPUT: MET

Data origin, for the record: patent US20230233543A1
